// provenance: the supplement of paper PMC10567573

B1: FAM46C (parent)
chain: FDHLQNRLIATKNPEEIRGGGLLK

# Variants of: B1
# measurement.protocol: protein stability index of a GFP-peptide fusion (GPS, HEK-293T) (PSI 1-6); higher = more stable;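 also: lentivirally expressed fusions sorted by FACS into six bins by GFP to DsRed ratio, PSI derived from sequencing read proportions per bin multiplied by bin number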
# measurement.parameters: c terminus: a fixed tail appended
Quick reference: protein stability index of the listed items.
measure.name: protein stability index

biopolymer_sequence="FDHLQNRLIATKNPEEIRLGGLLK [G19L]" measure_name="protein stability index" recorded_number=2.57
biopolymer_sequence="FDHLQNRIIATKNPEEIRGGGLLK [L8I]" measure_name="protein stability index" recorded_number=3.66
biopolymer_sequence="FDHLQNRLIATKNPEEIRGGWLLK [G21W]" measure_name="protein stability index" recorded_number=2.28
biopolymer_sequence="FDHLQNRLHATKNPEEIRGGGLLK [I9H]" measure_name="protein stability index" recorded_number=3.05
biopolymer_sequence="FDHLQTRLIATKNPEEIRGGGLLK [N6T]" measure_name="protein stability index" recorded_number=1.91
biopolymer_sequence="FDHLQNRLIATKNPEEIQGGGLLK [R18Q]" measure_name="protein stability index" recorded_number=4.37
biopolymer_sequence="FDHLQNRLIATENPEEIRGGGLLK [K12E]" measure_name="protein stability index" recorded_number=3.71
biopolymer_sequence="EDHLQNRLIATKNPEEIRGGGLLK [F1E]" measure_name="protein stability index" recorded_number=4.33
biopolymer_sequence="FDHLQNRLIPTKNPEEIRGGGLLK [A10P]" measure_name="protein stability index" recorded_number=4.52
biopolymer_sequence="FDHLQNRLIATKNPEEIEGGGLLK [R18E]" measure_name="protein stability index" recorded_number=4.67
biopolymer_sequence="FDHLQNRLIATKNPEEIRSGGLLK [G19S]" measure_name="protein stability index" recorded_number=3.69
